As shown below, each of these molecules has a reported TGI value.
system: TK-10 renal; test: NCI tumour cell line growth inhibition, 48 h

Problem: Query (molecule): NC(CCc1ncc(C(=O)O)s1)C(=O)O (stereo unspecified) ; field requested: TGI
Result: > 100 µM

Problem: // repeat for NCCCN(CCCN)CCc1cn(C(=O)c2ccccc2)cn1 and report
Result: 20.6 µM

Problem: Please answer likewise for O=C1CCSCCC(=O)Nc2ccccc2N1
Result: > 100 µM

* * *

Overview of reported TGI across a group of molecules:
tested on: A549 NSCLC; assay: NCI tumour cell line growth inhibition, 48 h

// solved cases for TGI follow
Molecule	Study target	Value kind	Result
C/C(=N\NC(=S)N1CCCC1)c1nc2ncccc2[nH]1	A549 NSCLC	TGI	> 100 µM
CN1CC=C(c2c(N)nc(N)[nH]c2=O)CC1	A549 NSCLC	TGI	> 100 µM
Cc1ccc(C(=O)NCc2ccccc2)cc1N=NN(C)C	A549 NSCLC	TGI	> 100 µM

Problem: Param item = Cc1ccc(S(=O)(=O)C2=C(C(C)C)N=NC2(C)C)cc1 ; retrieve measured TGI.
Result: > 100 µM

Problem: Same thing, different molecule: O=C(NC1CCCCC1)c1ccc(Nc2ncnc3c2cnn3-c2ccccc2)cc1
Result: 51.3 µM

Problem: Follow-up entry: CCOC(=O)C1=C(Nc2ccc(Br)cc2)OCC1=O
Result: > 100 µM

Problem: Now the same for O=c1cc(NNc2cccc(Cl)c2)[nH]c(=O)[nH]1
Result: > 100 µM

Problem: Moving on to the next molecule: N#CC(C#N)=C1CCCOc2c1ccc1ccccc21
Result: > 100 µM

Problem: Same thing, different molecule: COc1ccc(/C=N/n2cnc3c(c2=O)SC(=C(C#N)C#N)N3c2ccccc2)cc1
Result: > 100 µM

Problem: How about this molecule: C(=Nc1ccc2c(c1)Cc1ccccc1-2)c1ccccn1
Result: > 100 µM

Problem: Record: CNC(C)C(O)c1ccc2oc3cc(=O)c4ccccc4c-3nc2c1 (stereo unspecified)
Result: > 100 µM

Problem: Again, but for Nc1c(S(=O)(=O)c2ccccc2)c2nc3ccccc3nc2n2c1nc1ccccc12
Result: > 100 µM
